FYI, the data here is from patent US10183936B2.

Task for the reader: assign each of the following molecules its reported AD38 Viability Normalized Result (CPAM/DMSO %) at 10 μM.
System: AD38 cells
Experiment: Viability of AD38 cells (Promega CellTiter-Glo) at the end of compound treatment
Type: cell-based
Conditions: 10 μM compound, 6 days, luminescence normalized against DMSO control wells (controls being 100%)
Output spec: scalar in %, unitless text.

get_value(item= "O=C(Nc1ccccc1)c1ccc2c(c1)NC(=O)c1ccccc1S2" , readout=AD38 Viability Normalized Result (CPAM/DMSO %) at 10 μM) returns 28

The measured AD38 Viability Normalized Result (CPAM/DMSO %) at 10 μM associated with "O=C1Nc2c(cc(F)c(C(=O)NCCc3ccc(-c4ccccc4)cc3)c2F)Sc2ccccc21" reads 49

Looking up O=C1Nc2cc(S(=O)(=O)N3CCC(O)C3)ccc2Sc2ccccc21 (centres unmarked) , I found its AD38 Viability Normalized Result (CPAM/DMSO %) at 10 μM recorded as 94

Just so you know, measured AD38 Viability Normalized Result (CPAM/DMSO %) at 10 μM for "O=C(NCCc1cnco1)c1ccc2c(c1)NC(=O)c1ccccc1N2Cc1ccccc1" came out at 92

// sample "CN(C)S(=O)(=O)c1ccc(CCNC(=O)c2ccc3c(c2)NC(=O)c2cccc(F)c2S3)cc1" , its AD38 Viability Normalized Result (CPAM/DMSO %) at 10 μM was 97

// field: AD38 Viability Normalized Result (CPAM/DMSO %) at 10 μM; key: "CN1C(=O)c2ccccc2Sc2ccc(C(=O)NCc3cncnc3)cc21" ; value = 109

// AD38 Viability Normalized Result (CPAM/DMSO %) at 10 μM lookup, molecule = "O=C(NCc1ccccc1N1CCCC1)c1ccc2c(c1)NC(=O)c1ccccc1S2" , result: 92

The molecule listed as "O=C(NCCc1ccccn1)c1ccc2c(c1)NC(=O)c1cccc(F)c1S2" shows AD38 Viability Normalized Result (CPAM/DMSO %) at 10 μM equal to 87
